- STUDY_TARGET: hATX/ENPP2 (Homo sapiens, UniProt Q13822)
- METHOD_NOTES: hATX/ENPP2 biochemical assay using 16:0-LPC as substrate (Amplex Red/choline oxidase/HRP fluorescence)
- CONDITION_SET: hENPP2 2.5 nM, LPC (16:0) substrate
Where a name gives a salt, the structure may show the parent alone.
MEASURED_PARAMETER: IC50

| COMPOUND | MEASURED_PARAMETER | DATA_VALUE |
| --- | --- | --- |
| CCc1nc2ccc(-c3cnc(N4CC(C(=O)NC5(C#N)CC5)C4)nc3)cn2c1N(C)c1nc(-c2ccc(F)cc2)c(C#N)s1 | IC50 | ≤ 20 nM |
| CCc1nc2ccc(-c3ccc(N4CCC(NC5(CO)CC5)CC4)nc3)cn2c1N(C)c1nc(-c2ccc(F)cc2)c(C#N)s1 | IC50 | ≤ 20 nM |

Next item in the queue.
Query string: Quick one: IC50 for CCc1nc2ccc(-c3cnc(N4CC(C(=O)NC5CNC5)C4)nc3)cn2c1N(C)c1nc(-c2ccc(F)cc2)c(C#N)s1 [70 (hydrochloride salt)] ?
Result string: 20 to 200 nM
